System: Plasma
Test: Proteolytic stability in human plasma assessed as compound degradation at 1:3 compound to plasma ratio after 2 hrs by RP-HPLC analysis relative to control
Assay type: ADME, cell-free
Settings: 2 h
Non-standard residues stand in square brackets, D forms with d. Residues, ends and D or L forms follow the SMILES beside them. Abu(4,4,4-F3) = N[C@@H](CC(F)(F)F)C(=O)O; 4Abz = Nc1ccc(C(=O)O)cc1; Abu = CC[C@H](N)C(=O)O
ASSAY_ENDPOINT: Stability

COMPOUND	EXPERIMENTAL_RESULT
CC[C@H](NC(=O)[C@H](C)NC(=O)[C@H](CCCCN)NC(=O)c1ccc(N)cc1)C(=O)N[C@@H](Cc1ccccc1)C(=O)N[C@@H](C)C(=O)N[C@@H](C)C(=O)N[C@@H](C)C(=O)N[C@@H](C)C(=O)N[C@@H](CCCCN)C(=O)O.O=C(O)C(F)(F)F (H-[4Abz]KA[Abu]FAAAAK-OH)	Stable
CC[C@H](NC(=O)[C@H](C)NC(=O)[C@H](Cc1ccccc1)NC(=O)[C@H](C)NC(=O)[C@H](C)NC(=O)[C@H](CCCCN)NC(=O)c1ccc(N)cc1)C(=O)N[C@@H](C)C(=O)N[C@@H](C)C(=O)N[C@@H](CCCCN)C(=O)O.O=C(O)C(F)(F)F (H-[4Abz]KAAFA[Abu]AAK-OH)	Stable
C[C@H](NC(=O)[C@H](C)NC(=O)[C@H](CC(F)(F)F)NC(=O)[C@H](Cc1ccccc1)NC(=O)[C@H](C)NC(=O)[C@H](C)NC(=O)[C@H](CCCCN)NC(=O)c1ccc(N)cc1)C(=O)N[C@@H](C)C(=O)N[C@@H](CCCCN)C(=O)O.O=C(O)C(F)(F)F (H-[4Abz]KAAF[Abu(4,4,4-F3)]AAAK-OH)	Stable

----------
Below, each of the molecules is paired with its reported metabolised at 2 h, 20 umol/ml value.
Assay: Proteolytic stability in Tris-HCl buffer assessed as compound degradation at 20 umol/ml after 2 hrs by RP-HPLC analysis in presence of elastase relative to control
Type: ADME
Details: elastase in Tris-HCl buffer; read-out: Drug degradation
Non-standard residues stand in square brackets, D forms with d. Residues, ends and D or L forms follow the SMILES beside them. Abu(4,4-F2) = N[C@@H](CC(F)F)C(=O)O; 4Abz = Nc1ccc(C(=O)O)cc1

MOLECULE	metabolised at 2 h, 20 umol/ml
C[C@H](NC(=O)[C@H](C)NC(=O)[C@H](C)NC(=O)[C@H](Cc1ccccc1)NC(=O)[C@H](CC(F)F)NC(=O)[C@H](C)NC(=O)[C@H](CCCCN)NC(=O)c1ccc(N)cc1)C(=O)N[C@@H](C)C(=O)N[C@@H](CCCCN)C(=O)O (H-[4Abz]KA[Abu(4,4-F2)]FAAAAK-OH)	≤ 35%
C[C@H](NC(=O)[C@H](C)NC(=O)[C@H](CC(F)F)NC(=O)[C@H](Cc1ccccc1)NC(=O)[C@H](C)NC(=O)[C@H](C)NC(=O)[C@H](CCCCN)NC(=O)c1ccc(N)cc1)C(=O)N[C@@H](C)C(=O)N[C@@H](CCCCN)C(=O)O (H-[4Abz]KAAF[Abu(4,4-F2)]AAAK-OH)	≤ 35%
